target: β-galactosidase; experiment: Glycosidase inhibition analysis, β-galactosidase; format: biochemical; conditions: read-out: Ki as inhibitor of β-galactosidase
quantity_name: Ki (µM)
Form entry: value (µM) — number only.

Task: Need Ki of `O[C@H]1[C@H](O)[C@@H](O)CNC[C@@H]1O` , thanks.
Result: 6.5

----------
molecular target: HIV protease (Human immunodeficiency virus type 1 group M subtype B)
pKi: −log10 of the molar value.
quantity_name: pKi

Task: Need pKi of O[C@@H]1[C@@H](O)[C@@H](OCc2cc(F)cc(F)c2)CNC[C@@H]1OCc1cc(F)cc(F)c1 [Compound 60b] , thanks.
Result: ~3.46

----------
biological target: β-N-acetylglucosaminidase; assay: Glycosidase inhibition analysis, β-N-acetylglucosaminidase; format: biochemical; details: read-out: Ki as inhibitor of β-N-acetylglucosaminidase
quantity_name: pKi
Note on pKi: it is the negative log10 of concentration, concentration in mol/L.

Task: Write down the reported pKi of OC1CNCC(O)C(O)C1O [Compound 3, (3R,4R,5R,6R)-tetrahydroxyazepane] , test system: β-N-acetylglucosaminidase.
Result: 5.34
